measurement_notes: yeast display, Sf9 membrane polyspecificity reagent, FACS + sequencing; frameworks hold sequencing errors
attribute_measured: polyreactivity (PSR sort gate)

>>> observed_result("QVQLVESGGGLVQAGGSLRLSCAASGRNIHFNAMGWYRQAPGKERELVAGITFIGTSTYYADSVKGRFTISRDNAKNTVYLQMNSLKPDDTAVYYFAASAVALPYYAGDYDYWGQATQVTVSS")
"low polyreactivity"
>>> observed_result("QVQLQESGGGLVQAGGSLRLSCAASGNISYRTHMGWYRQAPGKERELVASIGGGTTNYADSVKGRFTISRDNAKNTVYLQMNSLKPEDTAVYYCAVVGTTQFRHRYWGQGTQVTASS")
"high polyreactivity"
>>> observed_result("QVQLVESGGGLVQAGGSLRLSCAASGRISLYAMGWYRQAPGKEREMVAAINGRGGNTYYADSVKGRFTISRDNAKNTVYLQMNSLKPEDTAVYYCNAVTVNGPYGYDYWGQGTQVTVSS")
"high polyreactivity"
>>> observed_result("QVQLVESGGGLVQAGGSLRLSCAASGFTFGYNAMGWYRQAPGKEREFVAAISISTGRTFYADSVKGRFTISRDNAKNTVYLQMNSLKPEDTAFYYCAARGYYPTNVGKYNYWGQGTQVTVSS")
"high polyreactivity"
>>> observed_result("QVQLVESGGGLVQAGGSLRLSCAASGRTFRGNAMGWYRQAPAKDRELVGAGGSTYYADSVKGRFTISRDNAKNTVYLQMNSLKPEASAVYYCGAALGFSRYSWFGYGYWGQGTQVTVSS")
"low polyreactivity"
>>> observed_result("QVQLVESGGGLVQAGGSLRLSCAASGRIFYNYVMGWYRQAPGKERELVAAISSSGGSTYYADSVKGRFTISRDNAKNTVYLQMNSLKPEDTAVYYCGTTRRVPGEYWGQGTQVTVSS")
"high polyreactivity"
>>> observed_result("QVQLVESGGGLVQAGGSLRLSCAASGFIFITYDMGWYIQAPGKERELVAVITSGGTTNYADSVKGRFTIARDNAKNTVYLQMNSLKPEDTAVYYCNRDSVLDPGNPNPYGFDYWGQGTQVTVSS")
"low polyreactivity"
>>> observed_result("QVQLVESGGGLVQAGGSLRLSCAASGNIFSKYVRGWYRQARGKERELVAAITYSGGSTYYADSVKGRFTISRDNSKNTVYLQMNSLKPEDTGVYYCNAVRRRSSLKLDSWGQGTQVTVSS")
"high polyreactivity"
>>> observed_result("QDHLVESGGGLVQAGGSLRLSCAASGSIFGLNVMGWYRHAPGKERELVASITSGRSTNYADSVKVRFTISRDNAKNTVYLQMNSLKPVVTAVYYCYATRVRGWYVTRYYYWGQGTQVTVSA")
"high polyreactivity"
>>> observed_result("KVQLVESGGGLVQAGGSLRLSCADSGIFRYYAMGWYRQAPGKEREFVAAMTRGGSTNYADSVKGRFTISRDNAKNSVYLQMNSLKPEDTEVYYCARDGYREFDWGQGTQVTVSS")
"high polyreactivity"
>>> observed_result("QVQLVESGGGLVQAGGSLRLSCAASRRIFWSNAMGWYRQEPGKERELVAAISRRGGRTYYADSVKGRFTISLDNAKNSVYLQMNSLKPEDTAVYYCAADGTADYDYWGQGTQVTVSS")
"high polyreactivity"
>>> observed_result("QVQLVESGGGLVQAGGSLRLSCAASGRTFASYARGWYRQAPGKERELVAVITRGVRTYYADSVKGRFTISRDNAKNTVYLQMNSLKPEDTAVYYCAKERYNANYDTSLYDYWGQGTQVTVSS")
"low polyreactivity"
>>> observed_result("QVQLEESGGGLVQAGGRLRLSCAASGRTFGANAMGWYRQAPGKERELVATIRRGGSTYYADSVKGRFTISRDNAKNTFYLQMHSLKPEDTAVYYCATQYHSYAKEYDYWGQGTQVTVSS")
"low polyreactivity"
>>> observed_result("QVQLVESGGGLVQAGGSLRLSCAASGSIFGINAMGWYRQAPGKERELVAAISYSGGSTYYADTVKGRFTISRDNAKNTVYLQMNSLKPEDTAVYYCARRGKHVAGRYYYWGQVTQVTVSS")
"high polyreactivity"
>>> observed_result("QVQLVESGGGLVQAGGSLRLSCAAYGSIFGGNAMGWYRQAPGKERELVARITDRGGSTDYADSVKGRFTISRDNAKNTVFLHMNSLKREDTAVYYCAKRGDRYEQRPRDYWGQGTQVTVSS")
"low polyreactivity"
>>> observed_result("QVQLVESCGGLVQAGGSLRLISAASGRTFGHNTMGWYRQAPGKEREYVAAIRWTAGSTYYADSVKGRFTISRDNAKNTVYLQMNSLKPEDTAVYYCAAYYVERRSYRVDRGTTLGYWGQGTQVTVSS")
"high polyreactivity"
>>> observed_result("QVQLVESGGGLVQAGGSLRLSCAASGSIFGYNDMGWYRQAPGKERELVAAIDWSDDITYYADSVKGRFTISRDNAKNTVYLQMNSLKPEDTAVYYCATKIRLALYFGYVSEYDYWGQGTQVTVSS")
"high polyreactivity"
>>> observed_result("QVQLVESCGGLVQAGGSLRLSCAASGRTFGVYAMGWYRQAPGKERDLVAAINYSGGSTYYADSVKGRFTISRDNAKNTVYLQMNSLKPEDTAVYSCNKGPLISYAYRYYQPYDYWGQGTQVTVSS")
"low polyreactivity"
>>> observed_result("HVQLVESGGGLVQAGGSLRLSCAASGSISHLYTMRWYRQAPGKERELVAAIRYSGGRTDYADSVKGRFTISRDNAKNTVYLQMNSLKPEDTAVYYCAATQLRRWYYHYGLDYWGQGTQVTVSS")
"high polyreactivity"
>>> observed_result("QVQLVESGGGFFQAGGSLRLSCAASGNTFGINAMRWYREAPGKERELVAAISWSGDRTYYADSVKGRFTISRDNAKNTVYLQMNSLKPEDTAVYYCAAGKYRFTYYALEYDYWGQGTQVTVSS")
"low polyreactivity"
>>> observed_result("QVQLVESGGGLVQAGGSLRLSCAASGLIFPRNAMGWYRQAPGKERELVAAITSGGGTNYADSVKWRFTISRDNAKNTVYLQMNSLIPEDTAVYYCAADYSVASPDGPYVIYDYWGQGTQVTVSS")
"low polyreactivity"
